System: AGS gastric carcinoma cells [heterozygous G12D]
Assay Comment: Cancer cell line proliferation (CellTiter-Glo), AGS
Assay type: cell-based
Experimental Context: Homo sapiens, 72 hr treatment, read-out: AGS CTG (EC50)
pEC50: −log10 of the molar value.
Experimental Readout: pEC50

pEC50 recorded for this compound, "CC(C)c1cc(C(=O)N2Cc3ccc(CN4CCC(CN5CCN(CC6(COc7nc(N8CC9CCC(C8)N9)c8cnc(-c9cccc%10ccccc9%10)c(F)c8n7)CC6)CC5)CC4)cc3C2)c(O)cc1O" , is 6.00 to 7.00

pEC50 recorded for this compound, C#Cc1c(F)ccc2cc(O)cc(-c3ncc4c(N5CC6CCC(C5)N6)nc(OCC5(CN6CCC7(CCN(Cc8ccc(-n9c(C(=O)NC(C)C(F)(F)F)nnc9-c9cc(C(C)C)c(O)cc9O)cc8)CC7)CC6)CC5)nc4c3F)c12 (stereo not drawn) , is > 7.00

pEC50 recorded for this compound, "C#Cc1cccc2cccc(-c3ncc4c(N5CC6CCC(C5)N6)nc(OC[C@@H]5C[C@H](N6CCN(Cc7ccc(-n8c(C(=O)NCC)nnc8-c8cc(C(C)C)c(O)cc8O)cc7)CC6)CN5C)nc4c3F)c12" , is > 7.00

pEC50 recorded for this compound, "C#Cc1cccc2cc(O)cc(-c3ncc4c(N5CC6CCC(C5)N6)nc(OCC5(CN6CCN(CC7CCN(Cc8ccc9c(c8)CN(C(=O)c8cc(C(C)C)c(O)cc8O)C9)CC7)CC6)CC5)nc4c3F)c12" , is > 7.00

pEC50 recorded for this compound, "CC(C)c1cc(C(=O)N2Cc3ccc(CN4CCC(C(=O)N(C)[C@H]5CN6CCC[C@@]6(COc6nc(N7CC8CCC(C7)N8)c7cnc(-c8cc(O)cc9ccccc89)c(F)c7n6)C5)CC4)cc3C2)c(O)cc1O" , is 6.00 to 7.00

pEC50 recorded for this compound, "CCc1cc(-c2nnc(C(=O)NCC(F)(F)F)n2-c2ccc(CN3CCN([C@H]4C[C@@H](COc5nc(N6CC7CCC(C6)N7)c6cnc(-c7cccc(C)c7C)c(F)c6n5)N(C)C4)CC3)cc2)c(O)cc1O" , is 6.00 to 7.00

pEC50 recorded for this compound, "C#Cc1c(F)ccc2cc(O)cc(-c3nc(OC)c4c(N5CC6CCC(C5)N6)nc(OCC5(CN6CCN(CC7CCN(Cc8ccc(-n9c(C(=O)NCC)nnc9-c9cc(C(C)C)c(O)cc9O)cc8)CC7)CC6)CC5)nc4c3F)c12" , is > 7.00

pEC50 recorded for this compound, "C#Cc1cccc2cc(O)cc(-c3ncc4c(N5CC6CCC(C5)N6)nc(OCC5(CN6CCC(C(=O)N7CCN(Cc8ccc9c(c8)CN(C(=O)c8cc(C(C)C)c(O)cc8O)C9)CC7)CC6)CC5)nc4c3F)c12" , is > 7.00

pEC50 recorded for this compound, "C#Cc1cccc2cc(O)cc(-c3ncc4c(N5CC6CCC(C5)N6)nc(OCC5(CN6CCN(C(=O)C7CCN(Cc8ccc9c(c8)CN(C(=O)c8cc(C(C)C)c(O)cc8O)C9)CC7)CC6)CC5)nc4c3F)c12" , is > 7.00

pEC50 recorded for this compound, "CC(C)c1cc(C(=O)N2Cc3ccc(CN4CCN(C[C@H]5CC[C@@H](COc6nc(N7CC8CCC(C7)N8)c7cnc(-c8cc(O)cc9ccccc89)c(F)c7n6)N5C)CC4)cc3C2)c(O)cc1O" , is 6.00 to 7.00

pEC50 recorded for this compound, "C#Cc1c(F)ccc2cc(O)cc(-c3ncc4c(N5CC6CCC(C5)N6)nc(OCC5(CN6CCC7(CCN(Cc8ccc9c(c8)CN(C(=O)c8cc(C(C)C)c(O)cc8O)C9)CC7)CC6)CC5)nc4c3F)c12" , is > 7.00

pEC50 recorded for this compound, "CC(C)c1cc(C(=O)N2Cc3ccc(CN(C)[C@H]4CN5CCC[C@@]5(COc5nc(N6CC7CCC(C6)N7)c6cnc(-c7cc(O)cc8ccccc78)c(F)c6n5)C4)cc3C2)c(O)cc1O" , is 6.00 to 7.00

pEC50 recorded for this compound, "C#Cc1c(F)ccc2cc(O)cc(-c3ncc4c(N5CC6CCC(C5)N6)nc(OCC5(CN6CCN(CC7CN(Cc8ccc9c(c8)CN(C(=O)c8cc(C(C)C)c(O)cc8O)C9)C7)CC6)CC5)nc4c3F)c12" , is > 7.00

pEC50 recorded for this compound, Cc1cccc(-c2ncc3c(N4CC5CCC(C4)N5)nc(OC[C@@H]4C[C@H](N5CCN(Cc6ccc(-n7c(C(=O)NC(C)C(F)(F)F)nnc7-c7cc(C(C)C)c(O)cc7O)cc6)CC5)CN4C)nc3c2F)c1C (stereo partly drawn) , is 6.00 to 7.00

pEC50 recorded for this compound, "CC(C)c1cc(C(=O)N2Cc3ccc(CN4CCN([C@H]5C[C@@H](COc6nc(N7CC8CCC(C7)N8)c7cnc(-c8ccccc8C(F)(F)F)c(F)c7n6)N(C)C5)CC4)cc3C2)c(O)cc1O" , is > 7.00

pEC50 recorded for this compound, "CC(C)c1cc(-c2nnc(O)n2-c2ccc(CN(C)[C@@H]3CN4CCC[C@]4(COc4nc(N5CC6CCC(C5)N6)c5cnc(-c6cc(O)cc7ccccc67)c(F)c5n4)C3)cc2)c(O)cc1O" , is < 6.00

pEC50 recorded for this compound, "Cc1cccc2cccc(-c3ncc4c(N5CC6CCC(C5)N6)nc(OC[C@@H]5C[C@H](N6CCN(Cc7ccc(-n8c(O)nnc8-c8cc(C(C)C)c(O)cc8O)cc7)CC6)CN5C)nc4c3F)c12" , is 6.00 to 7.00

pEC50 recorded for this compound, "C#Cc1cccc2cccc(-c3ncc4c(N5CC6CCC(C5)N6)nc(OCC5(CN6CCN(C(=O)C7CCN(Cc8ccc(-n9c(O)nnc9-c9cc(C(C)C)c(O)cc9O)cc8)CC7)CC6)CC5)nc4c3F)c12" , is 6.00 to 7.00
